Cited source: ChEMBL document CHEMBL1148474

assay: Inhibitory concentration towards rat mitochondrial F1F0-ATP synthase using a hexokinase / glucose-6-phosphate dehydrogenase coupled assay
Reported endpoint: IC50 (µM)

- Smiles text: "CC1(C)Oc2ccc(C#N)cc2[C@H](/N=C(/NC#N)Nc2ccc(Cl)cc2)[C@H]1O"
  Unit descriptor: "µM"
  IC50: 12
- Smiles text: "CC1(C)Oc2ccc(C#N)cc2[C@@H](N(Cc2ncc[nH]2)c2ccc(Cl)cc2)[C@@H]1O"
  Unit descriptor: "µM"
  IC50: 3.8
- Smiles text: "CC1(C)Oc2ccc(C#N)cc2[C@H](N(Cc2ncc[nH]2)c2ccc(Cl)cc2)[C@H]1O"
  Unit descriptor: "µM"
  IC50: 4

I: CC1(C)Oc2ccc(C#N)cc2[C@@H](/N=C(\NC#N)Nc2ccc(Cl)cc2)[C@@H]1O
II: CC1(C)Oc2ccc(S(=O)(=O)N3CCCCC3)cc2[C@H](N(Cc2ncc[nH]2)c2ccc(Cl)cc2)[C@H]1O
(Q) Form field 'greater IC50' accepts I or II ; which applies? # reply format: chosen label
(A) I

* * *

assay: Inhibitory concentration towards rat mitochondrial F1F0-ATP synthase using a pyruvate kinase / lactate dehydrogenase system
pIC50: −log10 of the molar value.
Reported endpoint: pIC50

// field: pIC50; key: CC1(C)Oc2ccc(C#N)cc2[C@@H](/N=C(\NC#N)Nc2ccc(Cl)cc2)[C@@H]1O ; value = < 4.00
